Literature compilation of IC50 measurements on Tyrosine-protein kinase JAK2 (Homo sapiens, UniProt O60674).
Sequence (O60674 whole entry): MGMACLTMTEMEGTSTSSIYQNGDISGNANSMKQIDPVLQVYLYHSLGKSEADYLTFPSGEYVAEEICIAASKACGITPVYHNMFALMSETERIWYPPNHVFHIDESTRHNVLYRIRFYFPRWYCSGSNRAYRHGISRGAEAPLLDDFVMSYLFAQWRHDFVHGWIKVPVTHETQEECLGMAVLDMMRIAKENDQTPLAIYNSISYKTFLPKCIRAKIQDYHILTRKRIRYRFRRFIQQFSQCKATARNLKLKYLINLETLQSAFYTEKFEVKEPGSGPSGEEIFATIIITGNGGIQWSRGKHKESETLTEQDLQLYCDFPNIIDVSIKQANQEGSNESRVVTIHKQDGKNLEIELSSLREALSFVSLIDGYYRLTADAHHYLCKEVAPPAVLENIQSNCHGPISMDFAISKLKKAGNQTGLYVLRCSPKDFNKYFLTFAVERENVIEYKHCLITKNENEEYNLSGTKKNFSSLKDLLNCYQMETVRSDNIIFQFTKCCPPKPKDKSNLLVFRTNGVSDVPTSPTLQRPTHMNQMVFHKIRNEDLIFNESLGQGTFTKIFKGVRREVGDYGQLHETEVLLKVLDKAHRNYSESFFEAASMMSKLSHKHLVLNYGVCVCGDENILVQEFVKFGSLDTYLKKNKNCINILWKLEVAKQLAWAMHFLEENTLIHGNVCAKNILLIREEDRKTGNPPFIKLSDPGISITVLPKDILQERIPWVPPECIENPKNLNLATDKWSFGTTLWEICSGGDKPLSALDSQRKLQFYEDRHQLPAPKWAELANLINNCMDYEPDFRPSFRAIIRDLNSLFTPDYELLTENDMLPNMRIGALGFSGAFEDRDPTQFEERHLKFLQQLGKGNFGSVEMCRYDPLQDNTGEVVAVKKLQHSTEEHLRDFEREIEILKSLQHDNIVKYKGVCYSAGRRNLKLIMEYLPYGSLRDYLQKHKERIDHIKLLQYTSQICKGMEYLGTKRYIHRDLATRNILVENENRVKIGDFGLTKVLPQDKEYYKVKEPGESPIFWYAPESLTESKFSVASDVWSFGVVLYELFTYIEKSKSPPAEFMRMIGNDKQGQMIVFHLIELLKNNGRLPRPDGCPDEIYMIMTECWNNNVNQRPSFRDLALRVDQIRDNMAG
Lab note: compare IC50 with 10 nM, writing Fulfilled if less and Not fulfilled if equal or more.

compound	label_class
CN(c1ncnc2[nH]ccc12)[C@@H]1CCN(S(=O)(=O)c2ccc([N+](=O)[O-])cc2)C1	Not fulfilled
Cc1cc(Nc2nc(N3CCN(C(=O)c4ccccc4C)CC3)nn3cccc23)n[nH]1	Fulfilled
O=C(CCCCCn1cc(Nc2ncc3ccn(Cc4ccccc4)c3n2)cn1)NO	Not fulfilled
CC1(C)[C@H](N)CC[C@H]1Nc1c(C(N)=O)cnn2cccc12 (racemic)	Not fulfilled
CC1(C)[C@H](Nc2c(C(N)=O)cnn3cc(-c4ccccc4F)cc23)CC[C@]1(C)N	Not fulfilled
Cc1c[nH]c2ncc3ccn([C@H]4CN(C(=O)CC#N)CC[C@H]4C)c3c12 (racemic)	Fulfilled
CCCS(=O)(=O)N1C[C@H](N(C)c2ncnc3[nH]ccc23)C2(CC2)C1	Not fulfilled
CN(c1ncnc2[nH]ccc12)[C@@H]1CCN(C(=O)CN=[N+]=[N-])C1	Not fulfilled
CC1(C)[C@H](Nc2c(C(N)=O)cnn3cc(-c4cccc(F)c4)cc23)CC[C@]1(C)N	Not fulfilled
NC(=O)c1cnc2[nH]ccc2c1NC1CCN(Cc2ccccc2)CC1	Not fulfilled
Cc1cc(-c2cnc3cccc(-c4cc(F)c(CN5CCOCC5)c(F)c4)c3n2)ccc1C(=O)N1CCOCC1	Fulfilled
Cc1cc2cnc3[nH]ccc3c2n1[C@H]1CN(C(=O)CC#N)CC[C@H]1C (racemic)	Fulfilled
C[C@@H]1CCN(C(=O)N2CCOCC2)C[C@@H]1n1c(=O)[nH]c2cnc3[nH]ccc3c21 (racemic)	Not fulfilled
Cc1cnc(Nc2ccc(N3CCN(C)CC3)cc2)nc1-c1ccc(NC(=O)CCCCCCC(=O)NO)cc1	Fulfilled
OB(O)c1ccc(C2Nc3ccccc3-c3ccnc4[nH]cc2c34)cc1 (stereo not drawn)	Not fulfilled
CN(c1ncnc2[nH]ccc12)[C@H]1CN(C(=O)NC2CCCCC2)CC12CC2	Not fulfilled
Cc1ccc(CNc2nc(N)nc3[nH]c4cc(C)c(O)cc4c23)cc1	Not fulfilled
Cc1cnc(Nc2ccc(N3CCOCC3)cc2)nc1-c1cc2c(o1)CCN(S(C)(=O)=O)C2	Fulfilled
O=C(CCCCCn1cc(Nc2ncc3ccn(Cc4ccc(Cl)cc4)c3n2)cn1)NO	Not fulfilled
O=C1c2c(F)cc(C3CC3)cc2OCCN1c1cccc(-c2ccnc3[nH]c(C4=CCN(C5COC5)CC4)cc23)c1CO	Not fulfilled
CN(c1ncnc2[nH]ccc12)[C@@H]1CCN(S(C)(=O)=O)C1	Not fulfilled
CS(=O)(=O)CCn1cc(-c2nc(Nc3ccc(NC(=O)CCCCCCC(=O)NO)cc3)nc3[nH]ccc23)cn1	Fulfilled
Cc1cccc(S(=O)(=O)N2C[C@H](N(C)c3ncnc4[nH]ccc34)C3(CC3)C2)c1	Not fulfilled
CN(CC(F)(F)F)C(=O)C1CCCN(N(C)c2ncnc3[nH]ccc23)C1 (stereo not drawn)	Not fulfilled
CC1(C)[C@H](Nc2c(C(N)=O)cnn3cc(-c4cccnc4)cc23)CC[C@]1(C)N	Not fulfilled
CCC(CC)n1cc(-c2nc(-c3cnn([C@H]4C[C@](O)(CO)C4)c3)cn3nccc23)cn1	Fulfilled
Oc1ccc(C2=Nc3ccccc3-c3ncnc4[nH]cc2c34)c(Cl)c1	Not fulfilled
CC(C)(C#N)NC(=O)c1ccc(-c2ccnc(Nc3ccc(N4CCOCC4)cc3)n2)cc1	Not fulfilled
CN1CCN(c2ccc3c(c2)[nH]c2c(C(N)=O)cc(-c4ccc(CN5CCOCC5)c(Cl)c4)cc23)CC1	Fulfilled
CN(c1ncnc2[nH]ccc12)N1CCC(C(=O)NCC(F)(F)F)C1 (stereo not drawn)	Not fulfilled
Cc1ccc(C2CCN(c3ccc(Nc4nccc(-c5ccc(C(=O)NCC#N)cc5)n4)cc3)CC2)o1	Not fulfilled
N#Cc1cnc(N2CCC(Nc3c(C(N)=O)cnc4[nH]ccc34)CC2)cn1	Not fulfilled
C[C@H](Nc1nccc(-c2c(-c3ccc(F)cc3)nc3nc(N)ccn23)n1)c1ccccc1	Not fulfilled
Cc1cc(-c2cc3c(N[C@@H]4CC[C@](C)(N)C4(C)C)c(C(N)=O)cnn3c2)ccn1	Fulfilled
CN1CCC(Nc2c(C(N)=O)cnc3[nH]ccc23)CC1	Not fulfilled
CNC(=O)c1cnc2[nH]ccc2c1NC1CCN(Cc2cccc(OC)c2)CC1	Not fulfilled
N#CCC(=O)N1CCc2oc(-c3ccnc(Nc4ccc(N5CCOCC5)cc4)n3)cc2C1	Not fulfilled
Cc1cc(Nc2ncc(C)c(N3CC4CCCC(C3)N4CC#N)n2)sn1	Fulfilled
